Data credit: ChEMBL document CHEMBL4138174

# Tested on: PC-3
# EXPERIMENT: Cytotoxicity against human PC3 cells assessed as reduction in cell viability after 48 hrs by MTT assay
# Assay type: functional, cell-based
# PROTOCOL_CONDITIONS: Homo sapiens, PC-3, 48 h
Each entry below lists one item and its recorded pIC50 value.
Scale explanation: pIC50 corresponds to minus log10 of a concentration expressed in moles per litre.

Below are worked cases with known answers.
- STRUCTURE_STRING: "COc1cc(NC(=O)N2CCOCC2)c2cc1Oc1ccc(cc1)C[C@H]1c3cc(c(OC)cc3CCN1C)Oc1c(OC)c(OC)cc3c1[C@H](C2)N(C)CC3"
  pIC50: 5.42
- STRUCTURE_STRING: "COc1cc(NC(=O)Nc2cccc(C)c2)c2cc1Oc1ccc(cc1)C[C@H]1c3cc(c(OC)cc3CCN1C)Oc1c(OC)c(OC)cc3c1[C@H](C2)N(C)CC3"
  pIC50: 5.50
- STRUCTURE_STRING: "COc1cc(NC(=O)Nc2cccc3ccccc23)c2cc1Oc1ccc(cc1)C[C@H]1c3cc(c(OC)cc3CCN1C)Oc1c(OC)c(OC)cc3c1[C@H](C2)N(C)CC3"
  pIC50: 5.88
- STRUCTURE_STRING: "COc1ccc(NC(=O)Nc2cc(OC)c3cc2C[C@H]2c4c(cc(OC)c(OC)c4Oc4cc5c(cc4OC)CCN(C)[C@H]5Cc4ccc(cc4)O3)CCN2C)cc1"
  pIC50: 5.33
- STRUCTURE_STRING: "O=c1[nH]cc(F)c(=O)[nH]1"
  pIC50: 4.70

Switching to the query record.
// pIC50 value for COc1cc(NC(=O)NC2CCCC2)c2cc1Oc1ccc(cc1)C[C@H]1c3cc(c(OC)cc3CCN1C)Oc1c(OC)c(OC)cc3c1[C@H](C2)N(C)CC3 : 5.75
